Assay: label from the status in PepcDB records
Metric name: protein production

INPUT: Entry MVLAGGVGKRLLPLTRERPKPYLPLAGKPLYMYAVEQVAMVRSLLDRAVMVTPPGHPTPPGSLPSWLDTVEQQGEGVEAGLATALKRLGGGEEVVVSFVGYLARPNTLVRHVLDFYSVTRYKLVLALAPVTRGSESFGFVDADPSTGRVLGFSGSREEWMAGRGRVFAGVLAGDPEALEVLAGEGFVEGINTLARRGLVGSVVWPGEWLEVGYPCDLLEAPRLVVEAWAAVISAKARVARSSVIQGGVVIEEDAEVGEGAVVEGPAYLGRGAVVGRNSVVGPGVVLEEGAVVGDLVSIERSVMLERAEASGPSRLEGVVIGDGAYIAPLAAATNREGCTVVAPKTRLGPRATLEPGKTYTLEHHHHHH : reported protein production = ?
OUTPUT: failed

INPUT: Please do the same for MDTTKTIAALFDFDGVIMDTETQYTVFWDEQGRKYLNEEDFGRRIKGQTLTQIYEKYFSDLPEAQQEITAGLNIYEKSMSYEYIPGVEAFIADLRKHGAKIAVVTSSNEEKMQNVYNAHPEFKGMVDRILTGEMFARSKPAPDCFLLGMEIFGATPENSYVFEDSFHGLQAGMTSGATVIGLATTNTREAITGKAHYIIDDFSEMTFEHLLALHR as well.
OUTPUT: failed

INPUT: Note, next up: MGHHHHHHSHMATSRYEPVAEIGVGAYGTVYKARDPHSGHFVALKSVRVPNGGGGGGGLPISTVREVALLRRLEAFEHPNVVRLMDVCATSRTDREIKVTLVFEHVDQDLRTYLDKAPPPGLPAETIKDLMRQFLRGLDFLHANCIVHRDLKPENILVTSGGTVKLADFGLARIYSYQMALTPVVVTLWYRAPEVLLQSTYATPVDMWSVGCIFAEMFRRKPLFCGNSEADQLGKIFDLIGLPPEDDWPRDVSLPRGAFPPRGPRPVQSVVPEMEESGAQLLLEMLTFNPHKRISAFRALQHSYLHK
OUTPUT: failed

###

Test: label from the status in PepcDB records
Metric name: protein production

The examples below pair each entry with its known result.
INPUT: Which value of protein production has been reported for LDLQIIMDDLLNLLLKEFKLDLAVIRLVDEKGVLRVRSYSGKGIAGIAGKDWEPEIETYIGEAFLSNRLQFVNDTQYMTKPLTRELMQKEGIKSFAHIPISRKGEPPFGILSVFSRTIVGLFNEPFLNLLESLAGQLAQAVKIVTEMEAKEREREEKERILLENARVVKEMEIAKQIQLSLLPSAPPTLPRH in the records?
OUTPUT: failed

INPUT: Same lookup for MVGNKVKSFMLPIISYAVPTFVLVYPSFFVSWLSESMHLAYWEVFAIVALPFLGRIIGSFIYQVFKNSVISYCFPFLGFLVILQNFLGALIFVRFLVGVIFGLLTSYAVESAVKSGRNVLVGFTTAGWPIGWVISYVAYVLLKNWNVINISGILIMLLALFELNGKEFGERSKISVSFPRLTSILIYVSALTPAFILQVMPSFLEVIKLTWLILPSYLLSIPTYVLLPIISEKVGIRKVLVISSIIVILSCVITFLLLPMMVIVFTSIGLGILGITPKYLAIRGEDPKRMGLALNIGSVMGLILPVVYGLMPFSSEFLLSILMVLMILI , please.
OUTPUT: failed

INPUT: Could you do the same for MKRIQVSPHIYKLESWFLLKMSAWIVKEDEGVYIVDTGMPYMGKRILKEAEKLGKVKGVLLTHGHSDHVGGLKKILDIQDLPVYVHTLDIKHMEGKEPFPGRKKREYLVEPGVAKPLPVDEDGEFRCFGNLVPYHTPGHSPGHVCYYHKKDRVLIGGDLFTSKRGKLQQPIKMFTADMNEAVRSGEIVKKLQPSKVSICHGNDIDNPHTQIDEYLTHYKYERNDQQKIKNEDRTIS , please?
OUTPUT: failed

INPUT: Could you do the same for MKEFVHDYLAASVENEEEGGRMRWYPWHSAEYRFNHILNVVDIATKIARKEGANVDVTRVAALFHDIAKLEAEQDLHAEAGARIAREYLRAHGDYPESFIEQVCSAVEVHSYQGSLDDLPLEVQCLIEADILDKVGANGTALMLLRMGYESRTHMDAAEMVDRVIERGEDARERVQSDTAESLVHQRLKRTRWFQEWLTMEVAEMAVEDDLDDVATGMGDSLEHHHHHH , please?
OUTPUT: not failed

INPUT: Again, but for LEEFKNSSKLVAAAEKERLDKHLGIPCNNCKQFPIEGKCYKCTECIEYHLCQECFDSYCHLSHTFTFREKRNQKWRSLEKRADEV
OUTPUT: not failed

Query sequence follows.
INPUT: Recorded protein production of MYEAHFGLKQLPFTLTPNTSLFHGLSPHYEAIHTVLSAISMGEGIIKVTGEVGTGKTLVCRMLINELPSNVELLYLPNPVMNGHELRQALAKELWLDQSGDDIALIDRIHEKIIDLHAEGKLVVVFIDEAQALSDEALETLRLFGNLETDYKKLLQIVLFGQPELDERLQQHNLRQLRQRITFSALLRALNMNETVAYIRYRIAESGCENNPFSLVQMKAIWKATNGIPRLINQVCHKSLLIAFSEQVNNVPSKAVFNAIIDTADTVKPKHYFPTFWGWRVSLEHHHHHH , please.
OUTPUT: not failed
